- Study system: glucagon receptor (UniProt P47871 26-477, limits assumed)
- Sequence (P47871 26-477 limits assumed): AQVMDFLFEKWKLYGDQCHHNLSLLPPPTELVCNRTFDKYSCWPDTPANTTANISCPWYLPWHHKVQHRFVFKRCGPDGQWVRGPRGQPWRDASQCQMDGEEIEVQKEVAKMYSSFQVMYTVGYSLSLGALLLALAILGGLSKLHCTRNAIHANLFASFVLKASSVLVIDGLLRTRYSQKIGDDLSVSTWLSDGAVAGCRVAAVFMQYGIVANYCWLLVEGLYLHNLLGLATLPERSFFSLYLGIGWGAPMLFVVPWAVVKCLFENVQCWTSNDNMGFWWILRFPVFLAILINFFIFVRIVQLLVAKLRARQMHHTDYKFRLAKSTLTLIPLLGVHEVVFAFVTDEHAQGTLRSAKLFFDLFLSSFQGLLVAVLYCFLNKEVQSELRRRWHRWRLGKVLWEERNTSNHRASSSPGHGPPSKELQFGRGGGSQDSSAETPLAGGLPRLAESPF
- Measurement description: cell-based or functional assay
Non-standard residues stand in square brackets, D forms with d. Groups on a side chain read outwards from the residue. Primed or numbered codes have the meaning given here. No end group written: not given here. *: point of attachment. PEG 40 kDa″ = 40 kDa polyethylene glycol; Stearoyl = CCCCCCCCCCCCCCCCCC(=O)*; Aib = CC(C)(N)C(=O)O
Endpoint: EC50 (nM)
# output: bare number, implied unit nM

Name the reported EC50 value associated with the binder H[Aib]QGTFTSDK(Stearoyl)SKYLDEQAAKEFIC(PEG 40 kDa″)WLMNT-NH2 [C18 acylated Glucagon analog peptide (SEQ ID NO: 537)]
8.55

I have this binder here, HSQGTFTSDYSKYLDEQAAKEFIC(PEG 40 kDa)WLMNT-NH2 [Chimera 2 Cys24 (40K)] , and I need its recorded EC50.
2.83

If you can, please state the reported EC50 value of HSQGTFTSDK([Trp-Stearoyl])SKYLDERRAKDFVC(PEG 40 kDa)WLMNT-NH2 [E16 K20-glucagon-NH2 with K10-W-C18 and C24-40K PEG (SEQ ID NO: 548)] .
1.29
